Listing of recorded IC50 by entry.
biological target: HCV polymerase (NS5B) type 1a (Hepatitis C virus genotype 1a); construct: made in house; host or cells: Escherichia coli (by the 'similar method' of the 1b enzyme); test: Assay of enzyme (HCV polymerase) inhibitory activity, type 1a enzyme; assay type: biochemical, HCV type 1a (cloned from the blood of patients); settings: HCV polymerase inhibitory activity (IC50), 1a, type 1a enzyme 1.5 μg/ml, 25° C., 60 min
Counter-ions that a name gives are not always drawn.
readout.kind: IC50

molecule="CC(=O)N1CCN(S(=O)(=O)c2ccc(O)cc2)[C@@H](C(=O)NCc2ccc(C(C)C)cc2)C1 [Example 251]" result="> 1000 nM"
molecule="CC(C)c1ccc(CNC(=O)[C@H]2CN(c3cc(C(=O)O)nn3C)CCN2S(=O)(=O)c2ccc(C(F)(F)F)cc2)cc1 [Example 439]" result="> 1000 nM"
molecule="CC(C)c1ccc(S(=O)(=O)N2CCNCC2C(=O)NCc2ccc(C(F)(F)F)cc2)cc1 (stereo not shown) [Example 15, hydrochloride]" result="> 1000 nM"
molecule="O=C(NCc1ccc(Cl)cc1)[C@H]1CN(c2cnc3cncnc3n2)CCN1S(=O)(=O)c1ccc(OC(F)(F)F)cc1 [Example 629]" result="100 to 1000 nM"

* * *

biological target: HCV polymerase (NS5B) type 1b (Hepatitis C virus genotype 1b); construct: a region encoding NS5B (J Virol 1991 March, 65(3), 1105-13, 544 amino acids after deletion of 47 amino acids on the C-terminal); 6xHis (C); made in house; host or cells: Escherichia coli; assay: Assay of enzyme (HCV polymerase) inhibitory activity, type 1b enzyme; type: biochemical, HCV BK strain (type 1b); details: HCV polymerase inhibitory activity (IC50), 1b, type 1b enzyme 0.5 μg/ml, 25° C., 60 min
pIC50: −log10 of the molar value.
Listing of recorded pIC50 by entry.
readout.kind: pIC50

compound=CCC(F)(F)c1ccc(CNC(=O)[C@H]2CN(C(=O)C(C)C)CCN2S(=O)(=O)c2ccc(OC(F)(F)F)cc2)cc1 assayed_target="HCV polymerase (NS5B) type 1b (Hepatitis C virus genotype 1b)" readout_kind=pIC50 result="6.00 to 7.00"
compound=CCC(F)(F)c1ccc(CNC(=O)[C@H]2CN(C(=O)Nc3cncs3)CCN2S(=O)(=O)c2ccc(OC(F)(F)F)cc2)cc1 assayed_target="HCV polymerase (NS5B) type 1b (Hepatitis C virus genotype 1b)" readout_kind=pIC50 result="6.00 to 7.00"
compound=COc1ccc(S(=O)(=O)N2CCN(C(C)=O)C[C@@H]2C(=O)NCc2ccc(C(C)C)cc2)cc1C(=O)O assayed_target="HCV polymerase (NS5B) type 1b (Hepatitis C virus genotype 1b)" readout_kind=pIC50 result="6.00 to 7.00"
compound="CC(C)c1ccc(S(=O)(=O)N2CCN(C(N)=S)CC2C(=O)NCc2ccc(C(F)(F)F)cc2)cc1 (stereo not shown)" assayed_target="HCV polymerase (NS5B) type 1b (Hepatitis C virus genotype 1b)" readout_kind=pIC50 result="< 6.00"
compound="CC(C)c1ccc(S(=O)(=O)N2CCN(c3nc(C(=O)O)cs3)CC2C(=O)NCc2ccc(C(F)(F)F)cc2)cc1 (stereo not shown)" assayed_target="HCV polymerase (NS5B) type 1b (Hepatitis C virus genotype 1b)" readout_kind=pIC50 result="< 6.00"
compound=CCC(F)(F)c1ccc(CNC(=O)[C@H]2CN(C(=O)Nc3ccnc(Cl)c3)CCN2S(=O)(=O)c2ccc(OC(F)(F)F)cc2)cc1 assayed_target="HCV polymerase (NS5B) type 1b (Hepatitis C virus genotype 1b)" readout_kind=pIC50 result="> 7.00"
compound=O=C(NCc1ccc(C2CC2)cc1)[C@H]1CN(C(=O)Cc2ccncc2)CCN1S(=O)(=O)c1ccc(OC(F)(F)F)cc1 assayed_target="HCV polymerase (NS5B) type 1b (Hepatitis C virus genotype 1b)" readout_kind=pIC50 result="6.00 to 7.00"
compound=CCCc1ccc(CNC(=O)[C@H]2CN(c3n[nH]c(=O)s3)CCN2S(=O)(=O)c2ccc(OC(F)(F)F)cc2)cc1 assayed_target="HCV polymerase (NS5B) type 1b (Hepatitis C virus genotype 1b)" readout_kind=pIC50 result="> 7.00"
compound=CCCc1ccc(S(=O)(=O)N2CCN(c3nc(C)c(C(=O)O)s3)C[C@@H]2C(=O)NCc2ccc(C(C)C)cc2C)cc1 assayed_target="HCV polymerase (NS5B) type 1b (Hepatitis C virus genotype 1b)" readout_kind=pIC50 result="> 7.00"
compound="CC(=O)N1CCN(S(=O)(=O)c2ccc(C(C)C)cc2)C(C(=O)NCCc2c[nH]c3ccccc23)C1 (stereo not shown)" assayed_target="HCV polymerase (NS5B) type 1b (Hepatitis C virus genotype 1b)" readout_kind=pIC50 result="< 6.00"
compound="CC(C)c1ccc(S(=O)(=O)N2CCN(C(N)=O)CC2C(=O)NCc2ccc(C(F)(F)F)cc2)cc1 (stereo not shown)" assayed_target="HCV polymerase (NS5B) type 1b (Hepatitis C virus genotype 1b)" readout_kind=pIC50 result="< 6.00"
compound=CCC(F)(F)c1ccc(CNC(=O)[C@H]2CN(C(=O)Nc3ccnc(C(=O)N(C)C)c3)CCN2S(=O)(=O)c2ccc(OC(F)(F)F)cc2)cc1 assayed_target="HCV polymerase (NS5B) type 1b (Hepatitis C virus genotype 1b)" readout_kind=pIC50 result="> 7.00"
compound=CCC(F)(F)c1ccc(CNC(=O)[C@H]2CN(C(=O)Nc3nc(C)ns3)CCN2S(=O)(=O)c2ccc(OC(F)(F)F)cc2)cc1 assayed_target="HCV polymerase (NS5B) type 1b (Hepatitis C virus genotype 1b)" readout_kind=pIC50 result="6.00 to 7.00"

// provenance: patent US8017612B2
